Reference source: patent US10035790B2

# subject-of-test: ligand binding domain of human RORγ (A262-S507) (Homo sapiens)
# Construct: made in house; host or cells: E. coli
# Sequence (P51449 262-507): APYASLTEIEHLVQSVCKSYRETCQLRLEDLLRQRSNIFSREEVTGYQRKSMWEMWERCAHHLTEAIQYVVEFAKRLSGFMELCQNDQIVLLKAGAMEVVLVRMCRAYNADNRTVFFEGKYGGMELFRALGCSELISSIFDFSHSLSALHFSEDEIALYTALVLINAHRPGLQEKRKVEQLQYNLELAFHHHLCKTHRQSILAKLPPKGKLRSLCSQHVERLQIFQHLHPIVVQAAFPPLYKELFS
# experiment-summary: General RORγ SPA binding assay (competition with [3H]25-hydroxycholesterol)
# settings: IC50, RORγ SPA binding assay, inhibition of [3H]25-hydroxycholesterol binding
I'd appreciate it if you could supply IC50 values for the items below.

Record excerpt, results attached:
Cc1nc(N)nc(C2CCN(C(=O)Oc3ccccc3F)CC2)c1C(=O)NCc1ccnc(C(F)(F)F)n1; 15.2 nM
Nc1ncc(C(=O)COc2cccc(C(F)(F)F)n2)c(C2CCN(C(=O)Oc3ccccc3F)CC2)n1; 485 nM

Now let's try a different one.
GET /values?readout=IC50&item= Cc1nc(C)c(C(=O)NCc2ccnc(C(F)(F)F)n2)c(C2CCN(C(=O)Oc3ccccc3)CC2)n1
11.6 nM
